system: Liver; assay: Biodistribution in ICR mouse liver at 5 to 10 uCi, iv after 2 hrs; assay type: ADME, organism-based; settings: in vivo
Recorded metric: Drug uptake (% ID/g)
// units = % ID/g; emit number, no label

Consider the molecule CNc1ccc(/C=C/c2cnc(OCCOCCOCCF)c([125I])c2)cc1 and give its measured Drug uptake.
6.25

Also check OCCOc1ncc(/C=C/c2ccc(O)cc2)cc1[125I]
2.63

Also check CNc1ccc(/C=C/c2cnc(OCCO)c([125I])c2)cc1
3.41

Also check CN(C)c1ccc(/C=C/c2cnc(OCCOCCOCCF)c([125I])c2)cc1
5.62

Also check CN(C)c1ccc(/C=C/c2cnc(OCCO)c([125I])c2)cc1
4.87

* * *

system: Brain; experiment: Ratio of drug distribution in brain after 2 mins to 30 mins in ICR mouse at 5 to 10 uCi, iv; assay type: ADME, organism-based; details: in vivo
For each of the compounds below, state its Ratio.
Lab note: write the figure by itself, no unit.

Consider the compound CNc1ccc(/C=C/c2cnc(OCCO)c([125I])c2)cc1 and give its measured Ratio.
9.13

Also check CN(C)c1ccc(/C=C/c2cnc(OCCOCCOCCF)c([125I])c2)cc1
2.09

Also check CNc1ccc(/C=C/c2cnc(OCCOCCOCCF)c([125I])c2)cc1
5.05

Also check CN(C)c1ccc(/C=C/c2cnc(OCCO)c([125I])c2)cc1
1.52

* * *

tested on: Lung; test: Biodistribution in ICR mouse lung at 5 to 10 uCi, iv after 2 mins; type: ADME, organism-based; settings: in vivo
For each of the compounds below, state its Drug uptake.
// units = % ID/g; emit number, no label

Consider the compound CNc1ccc(/C=C/c2cnc(OCCOCCOCCF)c([125I])c2)cc1 and give its measured Drug uptake.
6.85

Also check CNc1ccc(/C=C/c2cnc(OCCO)c([125I])c2)cc1
7.43

Also check OCCOc1ncc(/C=C/c2ccc(O)cc2)cc1[125I]
14.2

Also check CN(C)c1ccc(/C=C/c2cnc(OCCOCCOCCF)c([125I])c2)cc1
10.1

Also check CN(C)c1ccc(/C=C/c2cnc(OCCO)c([125I])c2)cc1
9.41

* * *

For each of the molecules below, state its Drug uptake.
tested on: Blood; test: Biodistribution in ICR mouse blood at 5 to 10 uCi, iv after 30 mins; format: ADME, organism-based; conditions: in vivo, 0.5 h
// units = % ID/g; emit number, no label

Consider the molecule CN(C)c1ccc(/C=C/c2cnc(OCCOCCOCCF)c([125I])c2)cc1 and give its measured Drug uptake.
2.05

Also check CNc1ccc(/C=C/c2cnc(OCCOCCOCCF)c([125I])c2)cc1
3.83

Also check CN(C)c1ccc(/C=C/c2cnc(OCCO)c([125I])c2)cc1
2.24

Also check OCCOc1ncc(/C=C/c2ccc(O)cc2)cc1[125I]
3.92

Also check CNc1ccc(/C=C/c2cnc(OCCO)c([125I])c2)cc1
3.08

* * *

test system: Heart; experiment: Biodistribution in ICR mouse heart at 5 to 10 uCi, iv after 2 hrs; assay type: ADME, organism-based; settings: in vivo
Could you please mark Criterion met for values of Drug uptake below 0.7 % ID/g and Criterion not met for values at or above it?

Criterion: Drug uptake strictly below 0.7 % ID/g. Is it met by CN(C)c1ccc(/C=C/c2cnc(OCCO)c([125I])c2)cc1 ?
Criterion met

Also check CNc1ccc(/C=C/c2cnc(OCCO)c([125I])c2)cc1
Criterion not met

Also check OCCOc1ncc(/C=C/c2ccc(O)cc2)cc1[125I]
Criterion met

Also check CN(C)c1ccc(/C=C/c2cnc(OCCOCCOCCF)c([125I])c2)cc1
Criterion not met

Also check CNc1ccc(/C=C/c2cnc(OCCOCCOCCF)c([125I])c2)cc1
Criterion not met
